The measured values listed here are drawn from patent US20250034269A1.

Quick reference: EC50 of the listed items.
Target: T1, human LTBR on cells (human, UniProt P36941 31-435)
T1 construct: also called recombinant human LTBR CHO cells; CHO-K1 cells overexpressing human LTBR
Test: FACS CHO-huLTBR

P1AE1873 (CBE11) (antibody, human IgG1, kappa, L234A L235A, V domains shown) VH: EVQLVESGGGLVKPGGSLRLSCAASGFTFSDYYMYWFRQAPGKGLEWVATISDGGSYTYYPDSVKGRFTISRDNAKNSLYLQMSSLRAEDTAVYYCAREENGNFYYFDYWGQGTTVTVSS VL: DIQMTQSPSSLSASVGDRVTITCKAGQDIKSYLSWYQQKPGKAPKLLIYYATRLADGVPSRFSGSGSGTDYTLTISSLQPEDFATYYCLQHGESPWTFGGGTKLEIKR | 0.682 µg/mL

I am curious: what EC50 value has been reported for P1AF0080 (antibody, human IgG1, kappa, L234A L235A, V domains shown, human IgG1 PG LALA; from transgenic rabbit immunization; also called LTBR (0080)) VH: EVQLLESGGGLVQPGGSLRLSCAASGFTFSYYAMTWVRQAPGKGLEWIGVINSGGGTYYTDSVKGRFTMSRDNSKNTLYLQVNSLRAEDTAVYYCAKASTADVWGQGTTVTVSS VL: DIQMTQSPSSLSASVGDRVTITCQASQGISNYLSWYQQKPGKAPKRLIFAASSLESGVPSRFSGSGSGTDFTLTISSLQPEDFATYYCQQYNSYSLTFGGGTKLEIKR ?
0.672 µg/mL

Item under review: P1AE9457 (antibody, human IgG1, kappa, L234A L235A, V domains shown, human IgG1 PG LALA; from transgenic rabbit immunization; also called LTBR (9457)) VH: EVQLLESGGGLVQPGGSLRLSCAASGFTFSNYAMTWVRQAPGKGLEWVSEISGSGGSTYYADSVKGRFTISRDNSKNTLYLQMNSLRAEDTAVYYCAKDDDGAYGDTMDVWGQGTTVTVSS VL: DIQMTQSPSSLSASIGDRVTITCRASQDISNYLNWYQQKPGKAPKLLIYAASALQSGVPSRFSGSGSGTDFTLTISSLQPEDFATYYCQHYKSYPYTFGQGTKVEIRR . Reported EC50?
0.336 µg/mL
